measured on: UniProt P97612
Sequence (P97612 whole entry): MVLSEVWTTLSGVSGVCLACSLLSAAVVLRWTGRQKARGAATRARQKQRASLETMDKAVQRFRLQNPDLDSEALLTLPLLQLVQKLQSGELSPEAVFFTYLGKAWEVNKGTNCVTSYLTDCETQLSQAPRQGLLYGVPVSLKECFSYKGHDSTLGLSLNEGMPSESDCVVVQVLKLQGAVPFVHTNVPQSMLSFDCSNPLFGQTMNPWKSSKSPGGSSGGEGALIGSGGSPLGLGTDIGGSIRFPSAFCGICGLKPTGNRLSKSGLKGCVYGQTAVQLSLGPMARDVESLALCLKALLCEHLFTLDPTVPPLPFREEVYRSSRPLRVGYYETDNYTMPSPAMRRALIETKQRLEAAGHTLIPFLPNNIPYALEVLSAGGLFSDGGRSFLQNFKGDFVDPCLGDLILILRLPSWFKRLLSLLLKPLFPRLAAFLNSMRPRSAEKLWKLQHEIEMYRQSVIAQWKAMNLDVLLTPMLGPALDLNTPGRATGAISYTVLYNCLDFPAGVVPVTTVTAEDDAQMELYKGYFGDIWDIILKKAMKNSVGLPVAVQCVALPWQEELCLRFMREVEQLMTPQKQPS
test protocol: Assay Method 2: FAAH assay, 3H-anandamide hydrolysis in cell homogenate
recorded conditions: average of results obtained, > value = solubility limit or highest concentration tested
Would you mind telling me the reported IC50 of each entry?
# output: bare number, implied unit nM

*Q* Given the compound O=C(Nc1ccn2ccnc2n1)N1CCN(Cc2cccc(Oc3ccc(Cl)cc3)c2)CC1 [Example 75] , what is its reported IC50?
*A* 830

*Q* Given the compound O=C(Nc1ccnc2[nH]ccc12)N1CCN(Cc2cccc(Oc3ccc(Cl)cc3)c2)CC1 [Example 61] , what is its reported IC50?
*A* 6000

*Q* Given the compound O=C(Nc1noc2ncccc12)N1CCN(Cc2cccc(Oc3ccc(OC(F)(F)F)cc3)c2)CC1 [Example 37] , what is its reported IC50?
*A* 100

*Q* Given the compound O=C(Nc1noc2ncccc12)N1CCN(Cc2cccc(Oc3ccc(Br)cc3)c2)CC1 [Example 24] , what is its reported IC50?
*A* 53

*Q* Given the compound O=C(Nc1cccc2cn[nH]c12)N1CCN(Cc2cccc(Oc3ccc(Cl)cc3)c2)CC1 [Example 48] , what is its reported IC50?
*A* 3000

*Q* Given the compound O=C(Nc1noc2ncccc12)N1CCN(Cc2cccc(Oc3cccc(Cl)c3)c2)CC1 [Example 23] , what is its reported IC50?
*A* 300

*Q* Given the compound O=C(Nc1noc2ncccc12)N1CCN(Cc2cccc(Oc3cccc(C(F)(F)F)c3)c2)CC1 [Example 15] , what is its reported IC50?
*A* 860

*Q* Given the compound O=C(Nc1cccc2nccn12)N1CCN(Cc2cccc(Oc3ccc(Cl)cc3)c2)CC1 [Example 69] , what is its reported IC50?
*A* 6

*Q* Given the compound O=C(Nc1cnc2[nH]ccc2c1)N1CCN(Cc2ccc3c(c2)OC(F)(F)O3)CC1 [Example 44] , what is its reported IC50?
*A* 9

*Q* Given the compound O=C(Nc1cnc2[nH]ccc2c1)N1CCN(Cc2cccc(Oc3ccc(C(F)(F)F)nn3)c2)CC1 [Example 80] , what is its reported IC50?
*A* 180

*Q* Given the compound O=C(Nc1noc2ncccc12)N1CCN(Cc2cccc(Oc3cccc(Br)c3)c2)CC1 [Example 35] , what is its reported IC50?
*A* 300

*Q* Given the compound O=C(Nc1noc2ncccc12)N1CCN(Cc2ccc(Cl)c(Cl)c2)CC1 [Example 13] , what is its reported IC50?
*A* 3000

*Q* Given the compound O=C(Nc1noc2ncccc12)N1CCN(Cc2cccc(Oc3cccc(OC(F)(F)F)c3)c2)CC1 [Example 36] , what is its reported IC50?
*A* 6000

*Q* Given the compound O=C(Nc1cccc2nccn12)N1CCN(Cc2ccc3c(c2)OC(F)(F)O3)CC1 [Example 71] , what is its reported IC50?
*A* 140

*Q* Given the compound O=C(Nc1cc2nccn2cn1)N1CCN(Cc2cccc(Oc3ccc(Cl)cc3)c2)CC1 [Example 74] , what is its reported IC50?
*A* 500

*Q* Given the compound O=C(Nc1cnc2ccccn12)N1CCC(Cc2ccc(Cl)c(Cl)c2)CC1 [Example 82] , what is its reported IC50?
*A* 800

*Q* Given the compound Cn1cc2c(NC(=O)N3CCN(Cc4cccc(Oc5ccc(Cl)cc5)c4)CC3)cccc2n1 [Example 65] , what is its reported IC50?
*A* 28

*Q* Given the compound O=C(Nc1nocc1Cl)N1CCC(Cc2cnc3ccccc3c2)CC1 [Example 84] , what is its reported IC50?
*A* 35

*Q* Given the compound O=C(Nc1noc2ncccc12)N1CCN(Cc2cccc(Oc3ccc(Cl)cc3)c2)CC1 [Example 20] , what is its reported IC50?
*A* 7

*Q* Given the compound O=C(Nc1noc2ncccc12)N1CCN(Cc2ccc(Br)c(Br)c2)CC1 [Example 25] , what is its reported IC50?
*A* 3000

*Q* Given the compound O=C(Nc1ccc2nccn2c1)N1CCN(Cc2cccc(Oc3ccc(Cl)cc3)c2)CC1 [Example 50] , what is its reported IC50?
*A* 1200

*Q* Given the compound O=C(Nc1cnc2[nH]ccc2c1)N1CCN(Cc2cccc(Oc3ccc(Cl)cc3)c2)CC1 [Example 60] , what is its reported IC50?
*A* 16

*Q* Given the compound O=C(Nc1cnc2ccccn12)N1CCN(Cc2cccc(Oc3ccc(Cl)cc3)c2)CC1 [Example 57] , what is its reported IC50?
*A* 98
